# log10(Ki) per entry
target: 5HT2A receptor (Homo sapiens, UniProt P28223); test: biochemical; type: binding; design: expressed in transfected cells; crude membranes; details: 5HT2A Ki (nM), secondary binding assay, Cheng-Prusoff
Sequence (P28223 whole entry): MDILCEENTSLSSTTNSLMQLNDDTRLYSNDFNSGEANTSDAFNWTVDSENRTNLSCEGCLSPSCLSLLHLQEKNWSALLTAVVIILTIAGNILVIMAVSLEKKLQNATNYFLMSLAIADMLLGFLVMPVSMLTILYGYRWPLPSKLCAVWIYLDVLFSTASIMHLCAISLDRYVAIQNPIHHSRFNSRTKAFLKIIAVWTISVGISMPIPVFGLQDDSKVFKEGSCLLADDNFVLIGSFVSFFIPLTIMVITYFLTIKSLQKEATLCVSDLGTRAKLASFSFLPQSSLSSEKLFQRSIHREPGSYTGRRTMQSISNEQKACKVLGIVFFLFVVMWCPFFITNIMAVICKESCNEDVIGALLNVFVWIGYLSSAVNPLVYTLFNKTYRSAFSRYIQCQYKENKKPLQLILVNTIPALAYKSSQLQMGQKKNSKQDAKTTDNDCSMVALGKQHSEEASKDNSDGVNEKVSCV
A value of 2 here means Ki of 100 in nM, since values are log10.

Known log10(Ki) results, listed for orientation:
{"columns": ["molecule", "log10(Ki)"],
 "data": [
  ["Fc1cc(Cl)c2[nH]nc(C34CNCC3C4(F)F)c2c1 (stereo not drawn) [Example 203]", 3.03],
  ["Fc1cc(Cl)c2[nH]nc(N3CCNCC3)c2c1 [Example 232]", 3.19],
  ["Clc1cccc2c(C34CNCC3C4)n[nH]c12 (single isomer, unassigned) [Example 273]", 3.80]
]}

## Input Find the recorded log10(Ki) belonging to Cc1cc(Cl)cc2c(C3CNC3)c[nH]c12 [Example 263] and report it.
## Output 2.39

## Input Another molecule: Clc1cccc2c(-c3cn[nH]c3)n[nH]c12 [Example 218, 7-chloro-3-(1H-pyrazol-4-yl)-1H-indazole]
## Output 3.24

## Input Another molecule: Fc1cc(Cl)c2[nH]nc(C3=CCCNC3)c2c1 [Example 129]
## Output 2.21

## Input Another molecule: Clc1cccc2c(C34CNCC3C4)c[nH]c12 (stereo not drawn) [Example 270]
## Output 2.13

## Input Another molecule: Cc1cccc2c(C34CNCC3C4)n[nH]c12 (stereo not drawn) [Example 186]
## Output 2.87

###

molecular target: 5HT2A receptor (Homo sapiens); assay: cell-based; set-up: expressed in transfected cells; host or cells: HEK293T cells, transient co-transfection; conditions: HEK-293T, read-out: 5HTA Gq Emax (%), BRET2 Gαq dissociation, HEK293T, normalized to 5-HT
Mark Fulfilled only when Emax stays strictly below 80%. Values equal to the cut-off are Not fulfilled.

Take a look at these entries with their results.
{"columns": ["compound", "target-system", "label-class"],
 "data": [
  ["Clc1cccc2c(C34CNCC3C4)n[nH]c12 (stereo not shown) [Example 180]", "5HT2A receptor (Homo sapiens)", "Not fulfilled"],
  ["Clc1cccc2c(C3=CCCN(CC4CC4)C3)n[nH]c12 [Example 151]", "5HT2A receptor (Homo sapiens)", "Fulfilled"],
  ["Clc1cccc2c(C34CNCCC3C4)c[nH]c12 (stereo not shown) [Example 269]", "5HT2A receptor (Homo sapiens)", "Not fulfilled"],
  ["FC1(F)C2CCNCC21c1n[nH]c2c(Cl)cccc12 (stereo not shown) [Example 188]", "5HT2A receptor (Homo sapiens)", "Not fulfilled"],
  ["Clc1cccc2c(C3=CC4CCC3NC4)n[nH]c12 (stereo not shown) [Example 223]", "5HT2A receptor (Homo sapiens)", "Not fulfilled"],
  ["CC#CCN1CCC=C(c2n[nH]c3c(Cl)cccc23)C1 [Example 149]", "5HT2A receptor (Homo sapiens)", "Fulfilled"],
  ["Clc1cccc2c(C3=CCCCNC3)n[nH]c12 [Example 208]", "5HT2A receptor (Homo sapiens)", "Not fulfilled"],
  ["CCCc1cccc2c(C3=CCCN(CC)C3)c[nH]c12 [Example 245]", "5HT2A receptor (Homo sapiens)", "Not fulfilled"]
]}

## Input # check: Emax < 80% for Fc1ccc2c(C3=CCCNC3)c[nH]c2n1 [Example 133]
## Output Fulfilled

## Input Another compound: Cc1c(F)ccc2c(C34CNCC3C4)c[nH]c12 (stereo not shown) [Example 283]
## Output Not fulfilled

###

# Emax per entry
target: 5HT2A receptor (Homo sapiens, UniProt P28223); assay: cell-based; set-up: expressed in transfected cells; host or cells: HEK293T cells, transient co-transfection; settings: HEK-293T, BRET1 beta-arrestin2 recruitment, HEK293T cells, normalized to 5-HT; read-out: 5HT2A β-Arr Emax (%)
Put down the number, then write its unit next to it.

Known Emax results, listed for orientation:
{"columns": ["input-smiles", "measured-quantity", "value-observed"],
 "data": [
  ["Clc1ccc2[nH]cc(C3=CCCNC3)c2c1", "Emax", "77.3%"],
  ["Clc1ccc2[nH]nc(C3=CCCNC3)c2c1", "Emax", "97%"]
]}

## Input Find the recorded Emax belonging to CN1CCC=C(c2n[nH]c3ccc(F)cc23)C1 and report it.
## Output 79.8%

## Input Another compound: CN1CCC=C(c2n[nH]c3cccc(F)c23)C1
## Output 54%

## Input Another compound: Clc1cccc2c(C3=CCCNC3)n[nH]c12
## Output 85.1%

## Input Another compound: CN1CCC=C(c2c[nH]c3cc(Cl)ccc23)C1
## Output 45.5%

## Input Another compound: Cc1cc(F)cc2c(C3=CCCN(C)C3)c[nH]c12
## Output 56.1%

## Input Another compound: Cc1cccc2[nH]cc(C3=CCCNC3)c12
## Output 42%

###

molecular target: 5HT2A receptor (Homo sapiens); test: cell-based; design: expressed in transfected cells; host or cells: HEK293T cells, transient co-transfection; settings: HEK-293T, BRET2 Gαq dissociation, HEK293T, normalized to 5-HT; read-out: 5HTA Gq Emax (%)
# Emax per entry
API: value field is a number in %; no unit string.

Known Emax results, listed for orientation:
{"columns": ["compound", "measured-quantity", "scale-unit", "value-observed"],
 "data": [
  ["CCCN1CCC=C(c2c[nH]c3c(C)cccc23)C1", "Emax", "%", 68.5],
  ["FCCCN1CCC=C(c2n[nH]c3c(Cl)cccc23)C1", "Emax", "%", 65],
  ["C1=C(c2c[nH]c3cccnc23)CNCC1", "Emax", "%", 79],
  ["N#Cc1cccc2c(C34CNCCC3C4)n[nH]c12 (centres unmarked)", "Emax", "%", 77.4],
  ["CN1CC(c2c[nH]c3c(Cl)cccc23)C1", "Emax", "%", 97.5]
]}

## Input Find the recorded Emax belonging to Fc1ccc2c(C34CNCC3C4)c[nH]c2c1 (centres unmarked) and report it.
## Output 66.3

## Input Another compound: c1cnc2[nH]cc(C34CNCCC3C4)c2c1 (centres unmarked)
## Output 98

###

target: 5HT2A receptor (Homo sapiens, UniProt P28223); experiment: biochemical; type: binding; set-up: expressed in transfected cells; crude membranes; details: 5HT2A Ki (nM), secondary radioligand binding, Ki from IC50 by Cheng-Prusoff
# Ki per entry
API: value field is a number in nM; no unit string.

{"columns": ["input-smiles", "measured-quantity", "value-observed"],
 "data": [
  ["CC(C)c1cccc2c(C3=CCCN(Cc4ccccc4)C3)c[nH]c12", "Ki", 2050],
  ["Fc1ccnc2[nH]cc(C3=CCCNC3)c12", "Ki", 844]
]}

## Input Find the recorded Ki belonging to CN1CCC=C(c2n[nH]c3cccc(C#N)c23)C1 and report it.
## Output 491

## Input Another molecule: COc1ccnc2[nH]cc(C3=CCCNC3)c12
## Output 312

## Input Another molecule: CN1CCC=C(c2n[nH]c3cc(Cl)ccc23)C1
## Output 1300

###

molecular target: 5HT2A receptor (Homo sapiens); experiment: cell-based; design: expressed in transfected cells; host or cells: HEK293T cells, transient co-transfection; settings: BRET1 beta-arrestin2 recruitment, HEK293T cells; read-out: 5HT2A β-Arr EC50
measured-quantity: pEC50
Remember the convention: pEC50 equals -log10 of concentration in molar.

Known pEC50 results, listed for orientation:
{"columns": ["compound", "target-system", "pEC50"],
 "data": [
  ["CC(C)c1ccc2[nH]cc(C3=CCCNC3)c2c1 [Example 23]", "5HT2A receptor (Homo sapiens)", 6.13],
  ["Fc1ccc2[nH]nc(C3=CCCNC3)c2c1 [Example 85]", "5HT2A receptor (Homo sapiens)", 7.16],
  ["Cc1cccc2[nH]cc(C3=CCCNC3)c12 [Example 17]", "5HT2A receptor (Homo sapiens)", 6.83]
]}

## Input Find the recorded pEC50 belonging to CN1CCC=C(c2c[nH]c3c(C(F)(F)F)cccc23)C1 [Example 59] and report it.
## Output 7.12

## Input Another compound: Cc1ccnc2[nH]cc(C3=CCCN(C)C3)c12 [Example 13]
## Output 6.12

## Input Another compound: CN1CCC=C(c2n[nH]c3cc(F)ccc23)C1 [Example 95]
## Output 6.33

## Input Another compound: COc1cccc2[nH]cc(C3=CCCNC3)c12 [Example 18]
## Output 7.15

## Input Another compound: Clc1cccc2c(C3=CCCNC3)n[nH]c12 [Example 89]
## Output 7.08

## Input Another compound: CN1CCC=C(c2c[nH]c3c(F)cccc23)C1 [Example 56]
## Output 7.24

## Input Another compound: CCc1cccc2c(C3=CCCNC3)n[nH]c12 [Example 121]
## Output 7.12

## Input Another compound: Fc1cccc2c(C3=CCCNC3)n[nH]c12 [Example 90]
## Output 7.07

## Input Another compound: CCN1CCC=C(c2c[nH]c3c(Cl)cccc23)C1 [Example 126]
## Output 7.13

## Input Another compound: Fc1ccc2c(C3=CCCNC3)n[nH]c2c1 [Example 78]
## Output 6.94

## Input Another compound: COc1ccnc2[nH]cc(C3=CCCN(C)C3)c12 [Example 14]
## Output 7.13

## Input Another compound: COc1cccc2[nH]cc(C3=CCCN(C)C3)c12 [Example 20]
## Output 7.21

## Input Another compound: Clc1ccc2[nH]cc(C3=CCCNC3)c2c1 [Example 22]
## Output 7.11

## Input Another compound: CN1CCC=C(c2c[nH]c3c(Cl)cccc23)C1 [Example 44]
## Output 7.10

## Input Another compound: CCc1cccc2c(C3=CCCNC3)c[nH]c12 [Example 50]
## Output 7.17

## Input Another compound: Clc1ccc2[nH]nc(C3=CCCNC3)c2c1 [Example 84]
## Output 7.28

## Input Another compound: COc1cccc2[nH]nc(C3=CCCNC3)c12 [Example 83]
## Output 6.96
